Measured Ki (Urokinase-type plasminogen activator (Homo sapiens))
testReadout: Ki (nM)

1. CN(C)C(=O)c1ccc(NC(=O)C(Oc2cccc3sc(C(=N)N)cc23)c2ccccc2)cc1 (stereo unspecified) : 160
2. COc1ccc(NC(=O)C(Oc2cccc3sc(C(=N)N)cc23)c2ccccc2)cc1 (stereo unspecified) : 140
3. Cc1cc(NC(=O)OCC(Oc2cccc3sc(C(=N)N)cc23)c2ccccc2)n(C)n1 (stereo unspecified) : 169
4. Cc1nn(C)c(CNC(C)C)c1NC(=O)OCC(Oc1cccc2sc(C(=N)N)cc12)c1ccccc1 (stereo unspecified) : 151
5. N=C(N)c1cc2c(OC(COC(=O)Nc3ccccc3F)c3ccccc3)cccc2s1 (stereo unspecified) : 331
6. N=C(N)c1cc2c(OC(C(=O)NCc3ccccc3)c3ccccc3)cccc2s1 (stereo unspecified) : 510
7. N=C(N)c1cc2c(OC(CNC(=O)Oc3ccccc3)c3ccccc3)cccc2s1 (stereo unspecified) : 85
8. N=C(N)c1cc2c(OC(COC(=O)Nc3ccccc3CN)c3ccccc3)cc(F)cc2s1 (stereo unspecified) : 828
9. N=C(N)c1cc2c(OC(CNCc3ccccc3)c3ccccc3)cccc2s1 (stereo unspecified) : 310
10. N=C(N)c1cc2c(OC(C(=O)Nc3ccccc3)c3ccccc3)cccc2s1 (stereo unspecified) : 140
11. N=C(N)c1cc2c(OC(CN)c3ccccc3)cccc2s1 (stereo unspecified) : 270
12. N=C(N)c1cc2c(OC(C(=O)Nc3ccc(C(=O)N4CCCC4)cc3)c3ccccc3)cccc2s1 (stereo unspecified) : 130
13. COCc1cc(NC(=O)OCC(Oc2cccc3sc(C(=N)N)cc23)c2ccccc2)n(C)n1 (stereo unspecified) : 109
14. N=C(N)c1cc2c(OC(COC(=O)Nc3ccccc3CN3CCNCC3)c3ccccc3)cccc2s1 (stereo unspecified) : 833
15. CCOC(=O)c1nccn1-c1ccc(NC(=O)C(Oc2cccc3sc(C(=N)N)cc23)c2ccccc2)cc1 (stereo unspecified) : 190
16. N=C(N)c1cc2c(OC(COC(=O)Nc3ccccc3)c3ccccc3)cc(F)cc2s1 (stereo unspecified) : 2110
17. Cc1noc(C)c1NC(=O)OCC(Oc1cccc2sc(C(=N)N)cc12)c1ccccc1 (stereo unspecified) : 142
18. N=C(N)c1cc2c(OC(COC(=O)Nc3ccccc3CN)c3ccccc3)cccc2s1 (stereo unspecified) : 297
19. N=C(N)c1cc2c(OC(COC(=O)Nc3ccc(F)cc3)c3ccccc3)cccc2s1 (stereo unspecified) : 780
20. CN1CCN(Cc2ccc(NC(=O)OCC(Oc3cccc4sc(C(=N)N)cc34)c3ccccc3)cc2)CC1 (stereo unspecified) : 201
21. COc1ccccc1NC(=O)C(Oc1cccc2sc(C(=N)N)cc12)c1ccccc1 (stereo unspecified) : 120
